Species: Homo sapiens
assay.overview: Compound was evaluated for inhibitory concentration potent against IMPDH type-I
Assay type: functional, organism-based
readout.label: IC50
// return the numeric value with its unit appended

Record NC(=O)c1csc([C@@H]2O[C@H](CO)[C@@H](O)[C@H]2O)n1 , field IC50: 94 nM

###

Organism: Homo sapiens
assay.overview: Compound was evaluated for binding affinity by enzymatically to inhibit IMPDH
Format: functional
readout.label: Ki (nM)
// return numeric value only (unit: nM, not printed)

Record NC(=O)c1cccc([C@@H]2O[C@H](CO)[C@@H](O)[C@H]2O)c1 , field Ki: 118

###

Species: Homo sapiens
assay.overview: Binding affinity towards less potent effect against alcohol dehydrogenase (ADH)
Format: functional
readout.label: pKi
Please treat pKi as minus the base-10 logarithm of the molar concentration.

Record NC(=O)c1cccc([C@@H]2O[C@H](CO)[C@@H](O)[C@H]2O)n1 , field pKi: 7.70
